Listed here: compounds with reported log10 of IC50 for Cyclin-dependent kinase 2 (Homo sapiens, UniProt P24941).
For clarity, the numbers are log10 values of IC50 expressed in µM.

CN(C)CC(O)COc1ccc(Nc2nccc(Nc3cc(C(F)(F)F)ccc3F)n2)cc1 (stereo not given) : 0.00
C#CCN(c1ccnc(Nc2ccc(OCC(O)CN(C)C)cc2)n1)c1cc(Cl)ccc1Cl (stereo not given) : 0.30
CN(C)CC(O)COc1ccc(Nc2nccc(Nc3ccc(Cl)cc3)n2)cc1 (stereo not given) : 1.26
COc1ccc(Nc2ccnc(Nc3ccc(OCC(O)CN(C)C)cc3)n2)cc1 (stereo not given) : 1.56
CN(C)CC(O)COc1ccc(Nc2nccc(Nc3ccccc3F)n2)cc1 (stereo not given) : 0.85

For Cyclin-dependent kinase 2 (Homo sapiens, UniProt P24941), provide log10 of IC50 of Cc1ccc(Cl)c(Nc2ccnc(Nc3ccc(OCC(O)CN(C)C)cc3)n2)c1 (stereo not given) please.
0.70

For Cyclin-dependent kinase 2 (Homo sapiens, UniProt P24941), provide log10 of IC50 of CN(C)CC(O)COc1ccc(Nc2nccc(Nc3cccc(Cl)c3)n2)cc1 (stereo not given) please.
0.70

For Cyclin-dependent kinase 2 (Homo sapiens, UniProt P24941), provide log10 of IC50 of Cc1ccc(Cl)c(Nc2cc(Nc3ccc(OCC(O)CN(C)C)cc3)ncn2)c1 (stereo not given) please.
1.34

For Cyclin-dependent kinase 2 (Homo sapiens, UniProt P24941), provide log10 of IC50 of Cc1cnc(Nc2ccc(OCC(O)CN(C)C)cc2)nc1Nc1ccccc1 (stereo not given) please.
0.90
